- study system: AGTR1 (Homo sapiens, UniProt P30556)
- Construct: host or cells: Pathunter CHO-K1 AGTR1 β-arrestin cell line (CHO-K1)
- Sequence (P30556 whole entry): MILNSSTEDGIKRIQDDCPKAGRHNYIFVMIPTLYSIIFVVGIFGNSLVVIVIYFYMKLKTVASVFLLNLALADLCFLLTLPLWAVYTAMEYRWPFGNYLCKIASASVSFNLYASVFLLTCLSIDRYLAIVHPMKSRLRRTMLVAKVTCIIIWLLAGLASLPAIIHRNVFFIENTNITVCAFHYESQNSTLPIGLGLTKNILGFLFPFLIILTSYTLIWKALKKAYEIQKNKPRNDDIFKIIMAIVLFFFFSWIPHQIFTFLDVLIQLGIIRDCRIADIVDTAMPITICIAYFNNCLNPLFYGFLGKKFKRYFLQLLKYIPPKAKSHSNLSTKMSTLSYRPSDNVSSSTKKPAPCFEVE
- procedure text: DiscoveRx β-arrestin2 recruitment assay (enzyme complementation, Pathunter CHO-K1 AGTR1 β-arrestin cell line)
- Type: cell-based
- condition label: DiscoveRx β-arrestin2 recruitment
- Experimental: In one aspect of the invention, signaling bias of compounds was assessed by comparing the relative activity of compounds to activate both the β-arrestin and Gq signaling pathways. In order to confirm signaling bias, compounds were studied in two different assay formats. DiscoveRx β-arrestin2 Recruitment and IP1 Assays β-arrestin2 recruitment to activated receptors can be assessed using an enzyme complementation method (Zhao, Jones et al. 2008). […]
The following molecules are shown together with reported EC50 values.
The answer should read as a number with its unit following.

Some solved entries appear below for comparison.
molecule: CCCC1=NC2(CCCC2)C(=O)N1Cc1ccc(-c2cc(N3CCC[C@@H](C)C3)ccc2-c2nn[nH]n2)cc1 [Example 117]
experimental result: 74 nM
//
molecule: CCCCc1ncc(C(=O)NC)n1Cc1ccc(-c2cc(-c3ccccc3)ccc2-c2nn[nH]n2)cc1 [Example 382]
experimental result: 13.2 nM
//
molecule: CCc1nc2c(C)cc(C)nc2n1Cc1ccc(-c2cc(-c3ccccc3)ccc2-c2nnn[nH]2)cn1 [Example 179]
experimental result: 40.7 nM
//
molecule: CCc1nc2c(C)cc(C)nc2n1Cc1ccc(-c2cc(-c3ccccc3C(C)C)ccc2-c2nn[nH]n2)cc1 [Example 3]
experimental result: 21.2 nM
//
molecule: CCc1nc2c(C)cc(C)nc2n1Cc1ccc(-c2cc(-n3cc(C)cn3)ccc2-c2nnn[nH]2)cc1 [Example 217]
experimental result: 4.6 nM
//
molecule: CCCCC1=NC2(CCCC2)C(=O)N1Cc1ccc(-c2cc(-n3ccc4ccc(F)cc43)ccc2-c2nn[nH]n2)cc1 [Example 109]
experimental result: 19.6 nM
//
molecule: CCc1nc2c(C)cc(C)nc2n1Cc1ccc(-c2cc(Oc3ccc(C)cn3)ccc2-c2nn[nH]n2)cc1 [Example 248]
experimental result: 26.5 nM
//
molecule: CCc1nc2c(C)cc(C)nc2n1Cc1ccc(-c2cc(N3CC(C)(C)c4ccccc43)ccc2-c2nn[nH]n2)cc1 [Example 84]
experimental result: 91.6 nM
//
molecule: CCCCc1ncc(C(=O)N2CCCCC2)n1Cc1ccc(-c2cc(-c3ccccc3)ccc2-c2nn[nH]n2)cc1 [Example 378]
experimental result: 107 nM
//
molecule: CCc1nc2c(C)cc(C)nc2n1Cc1ccc(-c2cc(-c3cccc(C)c3)ccc2-c2nn[nH]n2)cc1F [Example 266]
experimental result: 64.3 nM

May I ask what EC50 has been recorded for CCCCC(=O)N(Cc1ccc(-c2cc(-c3ccccc3)ccc2-c2nn[nH]n2)nc1)[C@H](C(=O)O)C(C)C [Example 430] ?
33.2 nM

Quick one: EC50 of CCCCc1ncc(C(=O)NC2CC3(CCC3)C2)n1Cc1ccc(-c2cc(-c3ccccc3)ccc2-c2nn[nH]n2)cc1 [Example 351] ?
18 nM

Name the reported EC50 value associated with the molecule CCCCC(=O)N(Cc1ccc(-c2cc(-c3cc(C)ccn3)ccc2-c2nn[nH]n2)cc1)C1(C(=O)O)CCCCC1 [Example 295]
47.5 nM

What value of measured EC50 is listed for CCc1nc2c(C)cc(C)nc2n1Cc1ccc(-c2cc(N3CCC[C@H](C)C3)ccc2-c2nn[nH]n2)cc1 [Example 88] ?
8.1 nM

For the molecule CCCn1cc(-c2ccc(-c3nnn[nH]3)c(-c3ccc(Cn4c(CC)nc5c(C)cc(C)nc54)cc3)c2)nn1 [Example 236] , what EC50 is on record?
12.5 nM

# credit: patent US12037324B2
